Data provenance: ChEMBL document CHEMBL3797052

Consider the following compounds and their measured growth at 100 µM readings.
Tested on: HT-29
ASSAY_DETAILS: Antiproliferative activity against human HT-29 cells assessed as cell growth at 10^-4 M after 48 hrs by sulforhodamine B assay
Format: functional
COND: HT-29, 48 h, read-out: Activity

# COMPOUND, MEASUREMENT_UNIT, growth at 100 µM
data = [
    ("CNC(=O)c1cc(Oc2ccc3nc(NC(=O)Nc4ccc(Cl)c(Cl)c4)sc3c2)ccn1", "%", -49),
    ("CNC(=O)c1cc(Oc2ccc3nc(NC(=O)Nc4cc(C(F)(F)F)cc(C(F)(F)F)c4)sc3c2)ccn1", "%", -82),
    ("CNC(=O)c1cc(Oc2ccc3nc(NC(=O)Nc4ccc(Cl)c(C(F)(F)F)c4)sc3c2)ccn1", "%", 68),
    ("CNC(=O)c1cc(Oc2ccc3nc(NC(=O)c4cc(C(F)(F)F)cc(C(F)(F)F)c4)sc3c2)ccn1", "%", -51),
]

---

TARGET: CYP2C19 (Homo sapiens, UniProt P33261)
Sequence (P33261 whole entry): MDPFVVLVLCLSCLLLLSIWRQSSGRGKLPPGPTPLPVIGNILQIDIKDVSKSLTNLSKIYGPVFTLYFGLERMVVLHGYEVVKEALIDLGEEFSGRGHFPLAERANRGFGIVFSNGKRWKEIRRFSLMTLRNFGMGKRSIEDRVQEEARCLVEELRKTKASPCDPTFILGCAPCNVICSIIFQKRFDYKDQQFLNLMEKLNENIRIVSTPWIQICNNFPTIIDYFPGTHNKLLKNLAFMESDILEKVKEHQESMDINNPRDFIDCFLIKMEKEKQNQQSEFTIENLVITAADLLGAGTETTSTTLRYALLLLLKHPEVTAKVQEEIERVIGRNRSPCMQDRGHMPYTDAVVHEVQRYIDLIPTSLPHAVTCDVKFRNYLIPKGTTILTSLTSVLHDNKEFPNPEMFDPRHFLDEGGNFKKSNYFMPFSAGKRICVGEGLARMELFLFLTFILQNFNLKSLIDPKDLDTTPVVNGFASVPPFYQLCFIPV
ASSAY_DETAILS: Inhibition of recombinant human CYP2C19 assessed as remaining enzyme activity at 10 uM after 5 mins in presence of NADP by fluorescence plate reader analysis
Format: ADME
COND: read-out: Activity
Consider the following compounds and their measured activity at 5 min, 10 µM readings.

# COMPOUND, MEASUREMENT_UNIT, activity at 5 min, 10 µM
rows = [
    ("CNC(=O)c1cc(Oc2ccc3nc(NC(=O)Nc4cc(C(F)(F)F)cc(C(F)(F)F)c4)sc3c2)ccn1", "%", 70.1),
    ("CNC(=O)c1cc(Oc2ccc3nc(NC(=O)Nc4ccc(Cl)c(Cl)c4)sc3c2)ccn1", "%", 83.6),
    ("CNC(=O)c1cc(Oc2ccc3nc(NC(=O)c4cc(C(F)(F)F)cc(C(F)(F)F)c4)sc3c2)ccn1", "%", 10.3),
    ("CNC(=O)c1cc(Oc2ccc3nc(NC(=O)Nc4ccc(Cl)c(C(F)(F)F)c4)sc3c2)ccn1", "%", 79.9),
]

---

ASSAY_DETAILS: Antiproliferative activity against human Hs 578T cells assessed as growth inhibition after 48 hrs by sulforhodamine B assay
Assay type: functional
Consider the following compounds and their measured GI50 readings.

# COMPOUND, GI50, nM
data = [
    ("CNC(=O)c1cc(Oc2ccc3nc(NC(=O)c4cc(C(F)(F)F)cc(C(F)(F)F)c4)sc3c2)ccn1", 3150),
    ("CNC(=O)c1cc(Oc2ccc3nc(NC(=O)Nc4ccc(Cl)c(Cl)c4)sc3c2)ccn1", 2770),
    ("CNC(=O)c1cc(Oc2ccc3nc(NC(=O)Nc4ccc(Cl)c(C(F)(F)F)c4)sc3c2)ccn1", 1530),
    ("CNC(=O)c1cc(Oc2ccc3nc(NC(=O)Nc4cc(C(F)(F)F)cc(C(F)(F)F)c4)sc3c2)ccn1", 1650),
]

---

ASSAY_DETAILS: Antiproliferative activity against human BT549 cells assessed as growth inhibition after 48 hrs by sulforhodamine B assay
Format: functional
COND: BT-549, 48 h
Consider the following molecules and their measured TGI readings.
ASSAY_ENDPOINT: TGI

# MOLECULE, ASSAY_ENDPOINT, RESULT
records = [
    ("CNC(=O)c1cc(Oc2ccc3nc(NC(=O)Nc4ccc(Cl)c(C(F)(F)F)c4)sc3c2)ccn1", "TGI", "9.73 µM"),
    ("CNC(=O)c1cc(Oc2ccc3nc(NC(=O)Nc4ccc(Cl)c(Cl)c4)sc3c2)ccn1", "TGI", "> 100 µM"),
    ("CNC(=O)c1cc(Oc2ccc3nc(NC(=O)Nc4cc(C(F)(F)F)cc(C(F)(F)F)c4)sc3c2)ccn1", "TGI", "3.07 µM"),
    ("CNC(=O)c1cc(Oc2ccc3nc(NC(=O)c4cc(C(F)(F)F)cc(C(F)(F)F)c4)sc3c2)ccn1", "TGI", "12.4 µM"),
    ("CNC(=O)c1cc(Oc2ccc(NC(=O)Nc3ccc(Cl)c(C(F)(F)F)c3)cc2)ccn1 [SORAFENIB]", "TGI", "5.01 µM"),
]

---

Tested on: NCI-H226
ASSAY_DETAILS: Antiproliferative activity against human NCI-H226 cells assessed as growth inhibition after 48 hrs by sulforhodamine B assay
Type: functional
COND: NCI-H226, 48 h
Rule: TGI under 8 µM gives no, otherwise yes.

# COMPOUND, LABEL_VALUE
rows = [
    ("CNC(=O)c1cc(Oc2ccc3nc(NC(=O)Nc4ccc(Cl)c(Cl)c4)sc3c2)ccn1", "no"),
    ("CNC(=O)c1cc(Oc2ccc3nc(NC(=O)Nc4cc(C(F)(F)F)cc(C(F)(F)F)c4)sc3c2)ccn1", "no"),
    ("CNC(=O)c1cc(Oc2ccc3nc(NC(=O)Nc4ccc(Cl)c(C(F)(F)F)c4)sc3c2)ccn1", "no"),
    ("CNC(=O)c1cc(Oc2ccc3nc(NC(=O)c4cc(C(F)(F)F)cc(C(F)(F)F)c4)sc3c2)ccn1", "yes"),
]

---

Tested on: NCI-H322M
ASSAY_DETAILS: Antiproliferative activity against human NCI-H322M cells assessed as cell growth at 10^-8 M after 48 hrs by sulforhodamine B assay
Assay type: functional
COND: read-out: Activity

# COMPOUND, MEASUREMENT_UNIT, growth at 0.01 µM
data = [
    ("CNC(=O)c1cc(Oc2ccc3nc(NC(=O)Nc4ccc(Cl)c(Cl)c4)sc3c2)ccn1", "%", 90),
    ("CNC(=O)c1cc(Oc2ccc3nc(NC(=O)Nc4cc(C(F)(F)F)cc(C(F)(F)F)c4)sc3c2)ccn1", "%", 95),
    ("CNC(=O)c1cc(Oc2ccc3nc(NC(=O)c4cc(C(F)(F)F)cc(C(F)(F)F)c4)sc3c2)ccn1", "%", 91),
    ("CNC(=O)c1cc(Oc2ccc3nc(NC(=O)Nc4ccc(Cl)c(C(F)(F)F)c4)sc3c2)ccn1", "%", 101),
]

---

ASSAY_DETAILS: Antiproliferative activity against human UACC257 cells assessed as cell growth at 10^-5 M after 48 hrs by sulforhodamine B assay
Format: functional
COND: UACC-257, 48 h, read-out: Activity
Rule: growth at 10 µM under 80% gives N, otherwise Y.

# COMPOUND, LABEL_VALUE
rows = [
    ("CNC(=O)c1cc(Oc2ccc3nc(NC(=O)Nc4ccc(Cl)c(Cl)c4)sc3c2)ccn1", "N"),
    ("CNC(=O)c1cc(Oc2ccc3nc(NC(=O)c4cc(C(F)(F)F)cc(C(F)(F)F)c4)sc3c2)ccn1", "N"),
    ("CNC(=O)c1cc(Oc2ccc3nc(NC(=O)c4ccc5c(c4)OCCO5)sc3c2)ccn1", "Y"),
    ("CNC(=O)c1cc(Oc2ccc3nc(NC(=O)Nc4ccc(F)cc4F)sc3c2)ccn1", "N"),
    ("CNC(=O)c1cc(Oc2ccc3nc(NC(=O)Nc4ccc(C(F)(F)F)cc4)sc3c2)ccn1", "Y"),
    ("CNC(=O)c1cc(Oc2ccc3nc(NC(=O)Nc4ccc(Cl)c(C(F)(F)F)c4)sc3c2)ccn1", "N"),
    ("CNC(=O)c1cc(Oc2ccc3nc(NC(=O)c4ccc(Cl)c(C(F)(F)F)c4)sc3c2)ccn1", "N"),
    ("CNC(=O)c1cc(Oc2ccc3nc(NC(=O)Nc4cc(C(F)(F)F)cc(C(F)(F)F)c4)sc3c2)ccn1", "N"),
    ("CNC(=O)c1cc(Oc2ccc3nc(NC(=O)c4ccc5ncccc5c4)sc3c2)ccn1", "Y"),
]

---

TARGET: Voltage-gated inwardly rectifying potassium channel KCNH2 (Homo sapiens, UniProt Q12809)
Sequence (Q12809 whole entry): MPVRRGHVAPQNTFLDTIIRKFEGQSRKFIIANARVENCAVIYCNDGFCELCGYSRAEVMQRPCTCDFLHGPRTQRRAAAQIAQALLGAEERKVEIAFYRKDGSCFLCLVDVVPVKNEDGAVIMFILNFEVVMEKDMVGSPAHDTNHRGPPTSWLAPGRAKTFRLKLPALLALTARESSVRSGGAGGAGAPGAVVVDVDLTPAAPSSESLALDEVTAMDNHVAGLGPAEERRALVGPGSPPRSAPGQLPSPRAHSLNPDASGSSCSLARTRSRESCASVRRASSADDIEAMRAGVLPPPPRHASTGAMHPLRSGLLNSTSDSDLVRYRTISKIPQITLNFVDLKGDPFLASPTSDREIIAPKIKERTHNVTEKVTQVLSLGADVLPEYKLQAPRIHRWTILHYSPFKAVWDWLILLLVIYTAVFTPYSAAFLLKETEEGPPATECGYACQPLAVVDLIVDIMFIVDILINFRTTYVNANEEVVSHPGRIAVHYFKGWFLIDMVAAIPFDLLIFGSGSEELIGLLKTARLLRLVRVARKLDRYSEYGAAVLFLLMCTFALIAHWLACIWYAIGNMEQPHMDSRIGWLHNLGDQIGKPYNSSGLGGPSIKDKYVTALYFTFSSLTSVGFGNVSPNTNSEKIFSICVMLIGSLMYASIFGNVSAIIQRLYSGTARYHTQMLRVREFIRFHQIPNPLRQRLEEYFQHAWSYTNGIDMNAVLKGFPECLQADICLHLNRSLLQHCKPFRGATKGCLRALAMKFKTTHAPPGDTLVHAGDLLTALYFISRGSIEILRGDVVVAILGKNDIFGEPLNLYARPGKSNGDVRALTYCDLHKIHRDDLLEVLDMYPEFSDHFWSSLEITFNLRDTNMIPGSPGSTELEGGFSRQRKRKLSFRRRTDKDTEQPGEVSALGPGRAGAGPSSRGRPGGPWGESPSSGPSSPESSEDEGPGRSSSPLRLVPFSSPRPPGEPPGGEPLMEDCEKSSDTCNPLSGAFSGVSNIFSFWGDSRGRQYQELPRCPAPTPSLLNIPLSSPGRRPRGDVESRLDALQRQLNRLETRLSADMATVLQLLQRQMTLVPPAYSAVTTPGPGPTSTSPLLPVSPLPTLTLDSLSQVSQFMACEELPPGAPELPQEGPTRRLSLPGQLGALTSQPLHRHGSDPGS
ASSAY_DETAILS: Inhibition of human ERG assessed as reduction in channel current by automated patch-clamp electrophysiology assay
ASSAY_ENDPOINT: IC50

# COMPOUND, RESULT
rows = [
    ("CNC(=O)c1cc(Oc2ccc3nc(NC(=O)Nc4cc(C(F)(F)F)cc(C(F)(F)F)c4)sc3c2)ccn1", "> 100 µM"),
    ("CNC(=O)c1cc(Oc2ccc3nc(NC(=O)c4cc(C(F)(F)F)cc(C(F)(F)F)c4)sc3c2)ccn1", "48.4 µM"),
    ("CNC(=O)c1cc(Oc2ccc3nc(NC(=O)Nc4ccc(Cl)c(C(F)(F)F)c4)sc3c2)ccn1", "> 100 µM"),
    ("CNC(=O)c1cc(Oc2ccc3nc(NC(=O)Nc4ccc(Cl)c(Cl)c4)sc3c2)ccn1", "> 100 µM"),
]

---

Tested on: A498
ASSAY_DETAILS: Antiproliferative activity against human A498 cells assessed as cell growth at 10^-8 M after 48 hrs by sulforhodamine B assay
Type: functional
COND: A498, 48 h, read-out: Activity
Consider the following compounds and their measured growth at 0.01 µM readings.
ASSAY_ENDPOINT: growth at 0.01 µM (%)

# COMPOUND, TARGET, ASSAY_ENDPOINT, READOUT_NUMBER
records = [
    ("CNC(=O)c1cc(Oc2ccc3nc(NC(=O)c4cc(C(F)(F)F)cc(C(F)(F)F)c4)sc3c2)ccn1", "A498", "growth at 0.01 µM", 69),
    ("CNC(=O)c1cc(Oc2ccc3nc(NC(=O)Nc4cc(C(F)(F)F)cc(C(F)(F)F)c4)sc3c2)ccn1", "A498", "growth at 0.01 µM", 100),
    ("CNC(=O)c1cc(Oc2ccc3nc(NC(=O)Nc4ccc(Cl)c(Cl)c4)sc3c2)ccn1", "A498", "growth at 0.01 µM", 101),
    ("CNC(=O)c1cc(Oc2ccc3nc(NC(=O)Nc4ccc(Cl)c(C(F)(F)F)c4)sc3c2)ccn1", "A498", "growth at 0.01 µM", 95),
]
